test system: LNCaP tumor-transplanted mouse; assay: Internal radioactivity distribution using LNCaP tumor-transplanted mouse; format: in vivo; details: 24 h after administration
Each entry below carries its recorded Pancreas.
# unit: % ID/g | format: bare number

Fill in: Pancreas of O=C([O-])CN(Cc1cccc(C(=O)[O-])n1)C[C@H](Cc1ccc(NC(=O)CCCCCNC(=O)CCC(=O)NCCCC[C@H](NC(=O)N[C@@H](CCC(=O)O)C(=O)O)C(=O)O)cc1)N(CC(=O)[O-])Cc1cccc(C(=O)[O-])n1.[111In+3] [[^111In]In-Octapa-1, reference compound] is ___
0.12

Fill in: Pancreas of O=C([O-])CN(CCN(CCc1ccc(NC(=O)[C@H](CCCCNC(=O)CCC(=O)NCCCC[C@H](NC(=O)N[C@@H](CCC(=O)O)C(=O)O)C(=O)O)NC(=O)CCCc2ccc(I)cc2)cc1)CCN(CC(=O)[O-])Cc1cccc(C(=O)[O-])n1)Cc1cccc(C(=O)[O-])n1.[111In+3] [[^111In]In-Neunpa-2] is ___
0.65

Fill in: Pancreas of O=C([O-])CN1CCN(C(CCC(=O)NCCC(=O)N2Cc3ccccc3-c3c(nnn3CCOCCOCCOCCOCCC(=O)NCCCC[C@H](NC(=O)N[C@@H](CCC(=O)O)C(=O)O)C(=O)O)-c3ccccc32)C(=O)[O-])CCN(CC(=O)[O-])CCN(C(CCC(=O)N[C@@H](CCCCNC(=O)CCCc2ccc(I)cc2)C(=O)O)C(=O)[O-])CC1.[111In+3] (stereo partly drawn) [[^111In]In-PtDA] is ___
2.03

---

system: LNCaP tumor-transplanted mouse; assay: Internal radioactivity distribution using LNCaP tumor-transplanted mouse; format: in vivo; conditions: 48 h after administration
Readout Label: Muscle (% ID/g)
# unit: % ID/g | format: bare number

GET /values?readout=Muscle&system=LNCaP tumor-transplanted mouse&item= O=C([O-])CN1CCN(C(CCC(=O)NCCC(=O)N2Cc3ccccc3-c3c(nnn3CCOCCOCCOCCOCCC(=O)NCCCC[C@H](NC(=O)N[C@@H](CCC(=O)O)C(=O)O)C(=O)O)-c3ccccc32)C(=O)[O-])CCN(CC(=O)[O-])CCN(C(CCC(=O)N[C@@H](CCCCNC(=O)CCCc2ccc(I)cc2)C(=O)O)C(=O)[O-])CC1.[111In+3] (stereo partly shown) [[^111In]In-PtDA]
0.81

---

test system: LNCaP tumor-transplanted mouse; test: Internal radioactivity distribution using LNCaP tumor-transplanted mouse; format: in vivo; conditions: 24 h after administration
Readout Label: Spleen (% ID/g)
# unit: % ID/g | format: bare number

INSERT INTO measurements (molecule, target_under_test, readout_label, experimental_result) VALUES
  ('O=C([O-])CN1CCN(C(CCC(=O)NCCCC[C@H](NC(=O)N[C@@H](CCC(=O)O)C(=O)O)C(=O)O)C(=O)[O-])CCN(CC(=O)[O-])CCN(C(CCC(=O)Nc2ccccc2)C(=O)[O-])CC1.[111In+3] (stereo partly drawn) [[^111In]In-PSMA-DB, reference compound]', 'LNCaP tumor-transplanted mouse', 'Spleen', 3.37),
  ('O=C([O-])CN(Cc1cccc(C(=O)[O-])n1)C[C@H](Cc1ccc(NC(=O)[C@H](CCCCNC(=O)CCC(=O)NCCCC[C@H](NC(=O)N[C@@H](CCC(=O)O)C(=O)O)C(=O)O)NC(=O)CCCc2ccc(I)cc2)cc1)N(CC(=O)[O-])Cc1cccc(C(=O)[O-])n1.[111In+3] [[^111In]In-Octapa-2]', 'LNCaP tumor-transplanted mouse', 'Spleen', 1.97);

Now consider the entry below.
Fill in: Spleen of O=C([O-])CN1CCN(C(CCC(=O)NCCC(=O)N2Cc3ccccc3-c3c(nnn3CCOCCOCCOCCOCCC(=O)NCCCC[C@H](NC(=O)N[C@@H](CCC(=O)O)C(=O)O)C(=O)O)-c3ccccc32)C(=O)[O-])CCN(CC(=O)[O-])CCN(C(CCC(=O)N[C@@H](CCCCNC(=O)CCCc2ccc(I)cc2)C(=O)O)C(=O)[O-])CC1.[111In+3] (stereo partly drawn) [[^111In]In-PtDA] is ___
9.69

---

system: LNCaP tumor-transplanted mouse; experiment: Internal radioactivity distribution using LNCaP tumor-transplanted mouse; type: in vivo; conditions: 24 h after administration
Readout Label: Liver (% ID/g)
# unit: % ID/g | format: bare number

Fill in: Liver of O=C([O-])CN1CCN(C(CCC(=O)NCCC(=O)N2Cc3ccccc3-c3c(nnn3CCOCCOCCOCCOCCC(=O)NCCCC[C@H](NC(=O)N[C@@H](CCC(=O)O)C(=O)O)C(=O)O)-c3ccccc32)C(=O)[O-])CCN(CC(=O)[O-])CCN(C(CCC(=O)N[C@@H](CCCCNC(=O)CCCc2ccc(I)cc2)C(=O)O)C(=O)[O-])CC1.[111In+3] (stereo partly shown) [[^111In]In-PtDA] is ___
3.36

---

tested on: LNCaP tumor-transplanted mouse; assay: Internal radioactivity distribution using LNCaP tumor-transplanted mouse; format: in vivo; details: 4 h after administration
Each entry below carries its recorded Lung.
# unit: % ID/g | format: bare number

GET /values?readout=Lung&system=LNCaP tumor-transplanted mouse&item= O=C([O-])CN(Cc1cccc(C(=O)[O-])n1)C[C@H](Cc1ccc(NC(=O)[C@H](CCCCNC(=O)CCC(=O)NCCCC[C@H](NC(=O)N[C@@H](CCC(=O)O)C(=O)O)C(=O)O)NC(=O)COCCOCCOCC(=O)N[C@@H](CCCCNC(=O)CCCc2ccc(I)cc2)C(=O)O)cc1)N(CC(=O)[O-])Cc1cccc(C(=O)[O-])n1.[111In+3] [[^111In]In-Octapa-3]
14.1

---

Each entry below carries its recorded Stomach (% ID).
test system: LNCaP tumor-transplanted mouse; test: Internal radioactivity distribution using LNCaP tumor-transplanted mouse; type: in vivo; conditions: 1 h after administration
# unit: % ID | format: bare number

INSERT INTO results (compound, output_unit, experimental_result) VALUES
  ('O=C([O-])CN(Cc1cccc(C(=O)[O-])n1)C[C@H](Cc1ccc(NC(=O)CCCCCNC(=O)CCC(=O)NCCCC[C@H](NC(=O)N[C@@H](CCC(=O)O)C(=O)O)C(=O)O)cc1)N(CC(=O)[O-])Cc1cccc(C(=O)[O-])n1.[111In+3] [[^111In]In-Octapa-1, reference compound]', '% ID', 0.08);

Fill in: Stomach (% ID) of O=C([O-])CN1CCN(C(CCC(=O)NCCC(=O)N2Cc3ccccc3-c3c(nnn3CCOCCOCCOCCOCCC(=O)NCCCC[C@H](NC(=O)N[C@@H](CCC(=O)O)C(=O)O)C(=O)O)-c3ccccc32)C(=O)[O-])CCN(CC(=O)[O-])CCN(C(CCC(=O)N[C@@H](CCCCNC(=O)CCCc2ccc(I)cc2)C(=O)O)C(=O)[O-])CC1.[111In+3] (some centres unmarked) [[^111In]In-PtDA] is ___
0.79

---

tested on: LNCaP tumor-transplanted mouse; experiment: Internal radioactivity distribution using LNCaP tumor-transplanted mouse; type: in vivo; details: 96 h after administration
Each entry below carries its recorded LNCaP Tumor.
# unit: % ID/g | format: bare number

The examples below pair each entry with its known result.
INSERT INTO assay_data (compound, target_under_test, experimental_result) VALUES
  ('O=C([O-])CN(Cc1cccc(C(=O)[O-])n1)C[C@H](Cc1ccc(NC(=O)[C@H](CCCCNC(=O)CCC(=O)NCCCC[C@H](NC(=O)N[C@@H](CCC(=O)O)C(=O)O)C(=O)O)NC(=O)CCCc2ccc(I)cc2)cc1)N(CC(=O)[O-])Cc1cccc(C(=O)[O-])n1.[111In+3] [[^111In]In-Octapa-2]', 'LNCaP tumor-transplanted mouse', 4.48),
  ('O=C([O-])CN(Cc1cccc(C(=O)[O-])n1)C[C@H](Cc1ccc(NC(=O)CCCCCNC(=O)CCC(=O)NCCCC[C@H](NC(=O)N[C@@H](CCC(=O)O)C(=O)O)C(=O)O)cc1)N(CC(=O)[O-])Cc1cccc(C(=O)[O-])n1.[111In+3] [[^111In]In-Octapa-1, reference compound]', 'LNCaP tumor-transplanted mouse', 0.72),
  ('O=C([O-])CN(CCN(CCc1ccc(NC(=O)CCCCCNC(=O)CCC(=O)NCCCC[C@H](NC(=O)N[C@@H](CCC(=O)O)C(=O)O)C(=O)O)cc1)CCN(CC(=O)[O-])Cc1cccc(C(=O)[O-])n1)Cc1cccc(C(=O)[O-])n1.[111In+3] [[^111In]In-Neunpa-1, reference compound]', 'LNCaP tumor-transplanted mouse', 0.32),
  ('O=C([O-])CN1CCN(C(CCC(=O)NCCCC[C@H](NC(=O)N[C@@H](CCC(=O)O)C(=O)O)C(=O)O)C(=O)[O-])CCN(CC(=O)[O-])CCN(C(CCC(=O)Nc2ccccc2)C(=O)[O-])CC1.[111In+3] (some centres unmarked) [[^111In]In-PSMA-DB, reference compound]', 'LNCaP tumor-transplanted mouse', 1.05),
  ('O=C(O)CC[C@H](NC(=O)N[C@@H](CCCCNC(=O)[C@H](Cc1ccc2ccccc2c1)NC(=O)[C@H]1CC[C@H](CNC(=O)CCC(C(=O)O)N2CCN(CC(=O)O)CCN(C(CCC(=O)N[C@@H](CCCCNC(=O)CCCc3ccc(I)cc3)C(=O)O)C(=O)O)CCN(CC(=O)O)CC2)CC1)C(=O)O)C(=O)O (some centres unmarked) [[^111In]In-PSMA-NAT-DA1, metal not drawn]', 'LNCaP tumor-transplanted mouse', 56.2),
  ('O=C([O-])CN1CCN(C(CCC(=O)NCCCC[C@H](NC(=O)N[C@@H](CCC(=O)O)C(=O)O)C(=O)O)C(=O)[O-])CCN(CC(=O)[O-])CCN(C(CCC(=O)N[C@@H](CCCCNC(=O)CCCc2ccc(I)cc2)C(=O)O)C(=O)[O-])CC1.[111In+3] (some centres unmarked) [[^111In]In-PSMA-DA1]', 'LNCaP tumor-transplanted mouse', 5.98);

Fill in: LNCaP Tumor of O=C([O-])CN(CCN(CCc1ccc(NC(=O)[C@H](CCCCNC(=O)CCC(=O)NCCCC[C@H](NC(=O)N[C@@H](CCC(=O)O)C(=O)O)C(=O)O)NC(=O)CCCc2ccc(I)cc2)cc1)CCN(CC(=O)[O-])Cc1cccc(C(=O)[O-])n1)Cc1cccc(C(=O)[O-])n1.[111In+3] [[^111In]In-Neunpa-2] is ___
3.35

Fill in: LNCaP Tumor of O=C([O-])CN(Cc1cccc(C(=O)[O-])n1)C[C@H](Cc1ccc(NC(=O)[C@H](CCCCNC(=O)CCC(=O)NCCCC[C@H](NC(=O)N[C@@H](CCC(=O)O)C(=O)O)C(=O)O)NC(=O)COCCOCCOCC(=O)N[C@@H](CCCCNC(=O)CCCc2ccc(I)cc2)C(=O)O)cc1)N(CC(=O)[O-])Cc1cccc(C(=O)[O-])n1.[111In+3] [[^111In]In-Octapa-3] is ___
4.17

Cited source for all entries: patent US20240174622A1
